- protocol_summary: Stability in pH 1 deuterated buffer assessed as compound remaining after 8 days by 1H NMR spectroscopy
- Format: physicochemical
- conditions_used: pH 4 deuterated buffer, in the assay text read “pH 4” for “pH 1”, read-out: Stability
measure: remaining at 192 h (%)
Only the number, expressed in %, is required.

What value of remaining at 192 h has been recorded for this entry: C[C@@H]1Cc2c(ccc3[nH]ncc23)[C@@H](c2c(F)cc(/C=C/C(=O)O)cc2F)N1CC(C)(C)F
58

---

- protocol_summary: Oral bioavailability in rat at 1 mg/kg
- Format: ADME, organism-based
- conditions_used: in vivo
# bioavailability per entry
Only the number, expressed in %, is required.

{"columns": ["input_smiles", "measure", "measurement"],
 "data": [
  ["C[C@@H]1Cc2c(ccc3[nH]ncc23)[C@@H](c2c(F)cc(/C=C/C(=O)O)cc2F)N1CC(C)(C)F", "bioavailability", 31]
]}

What value of bioavailability has been recorded for this entry: COc1cc(/C=C/C(=O)O)ccc1[C@@H]1c2ccc3[nH]ncc3c2C[C@@H](C)N1CC(C)(F)F
51

What value of bioavailability has been recorded for this entry: C[C@@H]1Cc2c(ccc3[nH]ncc23)[C@@H](c2c(F)cc(/C=C/C(=O)O)cc2F)N1CC(C)(F)F
16

---

- protocol_summary: Lipophilicity, log D of the compound at pH 7.4 by shake flask method
- Type: physicochemical
- conditions_used: buffer
# logD per entry

See these solved cases before continuing.
{"columns": ["compound", "logD"],
 "data": [
  ["CC(C)CN1[C@H](c2ccc(/C=C/C(=O)O)cc2)c2ccc3[nH]ncc3c2CC1(C)C", 2],
  ["C[C@@H]1Cc2c(ccc3[nH]ncc23)[C@@H](c2ccc(/C=C/C(=O)O)cc2)N1CC(C)(C)F", 2.9],
  ["C[C@@H]1Cc2c(ccc3[nH]ncc23)[C@@](C)(c2c(F)cc(/C=C/C(=O)O)cc2F)N1CC(C)(F)F", 3],
  ["C[C@@H]1Cc2c(ccc3[nH]ncc23)[C@@H](c2c(F)cc(/C=C/C(=O)O)cc2F)N1CC(C)(F)F", 2.3],
  ["COc1cc(/C=C/C(=O)O)ccc1[C@@H]1c2ccc3[nH]ncc3c2C[C@@H](C)N1CC(C)(C)F", 2.2]
]}

What value of logD has been recorded for this entry: CC(C)CN1[C@H](c2c(F)cc(/C=C/C(=O)O)cc2F)c2ccc3[nH]ncc3c2C[C@H]1C
3

What value of logD has been recorded for this entry: COc1cc(/C=C/C(=O)O)c(F)cc1[C@@H]1c2ccc3[nH]ncc3c2C[C@@H](C)N1CC(C)(F)F
2.6

What value of logD has been recorded for this entry: COc1c([C@@H]2c3ccc4[nH]ncc4c3C[C@@H](C)N2CC(C)(F)F)ccc(/C=C/C(=O)O)c1F
2.6

What value of logD has been recorded for this entry: COc1cc(/C=C/C(=O)O)ccc1[C@@H]1c2ccc3[nH]ncc3c2C[C@@H](C)N1CC(C)(F)F
2.5

What value of logD has been recorded for this entry: COc1cc(/C=C/C(=O)O)ccc1[C@]1(C)c2ccc3[nH]ncc3c2C[C@@H](C)N1CC(C)(C)F
1.9

---

- protocol_summary: Fraction unbound in 10% human plasma by equilibrium dialysis
- Format: ADME, cell-free
- conditions_used: 10% plasma
# fraction unbound per entry
No unit in the answer, please; the number alone is enough.

What value of fraction unbound has been recorded for this entry: CC(C)CN1CCc2cccc3[nH]cc(c23)C1c1ccc(/C=C/C(=O)O)cc1 (stereo not drawn)
0.11

What value of fraction unbound has been recorded for this entry: C[C@@H]1Cc2c(ccc3[nH]ncc23)[C@@H](c2ccc(/C=C/C(=O)O)cc2)N1CC(C)(C)F
0.0087

What value of fraction unbound has been recorded for this entry: C[C@@H]1Cc2c(ccc3[nH]ncc23)[C@@](C)(c2c(F)cc(/C=C/C(=O)O)cc2F)N1CC(C)(F)F
0.0027

---

- protocol_summary: Lipophilicity, log D of the compound at pH 7.4 by shake flask method
- Format: physicochemical
- conditions_used: buffer
If the reported logD equals or exceeds 2, assign 1. If not, assign -1.

For orientation, consider the following solved cases.
{"columns": ["compound", "group"],
 "data": [
  ["C[C@@H]1Cc2c(ccc3[nH]ncc23)[C@@H](c2c(F)cc(/C=C/C(=O)O)cc2F)N1CC(C)(C)F", 1],
  ["CC(C)CN1CCc2c(ccc3[nH]ncc23)[C@H]1c1ccc(/C=C/C(=O)O)cc1", -1],
  ["CC(C)CN1CCc2cccc3[nH]cc(c23)C1c1ccc(/C=C/C(=O)O)cc1 (stereo unspecified)", -1],
  ["C[C@@H]1Cc2c(ccc3[nH]ncc23)[C@@](C)(c2c(F)cc(/C=C/C(=O)O)cc2F)N1CC(C)(C)F", 1],
  ["COc1cc(/C=C/C(=O)O)cc(F)c1[C@@H]1c2ccc3[nH]ncc3c2C[C@@H](C)N1CC(C)(F)F", 1]
]}

Next:
Please check the record CC(C)CN1CCc2c(ccc3[nH]ccc23)C1c1ccc(/C=C/C(=O)O)cc1 (stereo unspecified) and state if its logD is at or above 2.
-1

Attribution: ChEMBL document CHEMBL4368914
